# Test system: Rattus norvegicus
# run.description: Antiinflammatory activity in Wistar albino rat assessed as inhibition of carrageenan-induced paw edema dosed at 20 mg/kg in plantar region of paw administered 30 mins before carrageenan challenge measured 3 hrs post carrageenan-induced inflammation
# Format: functional
recorded.endpoint: inhibition in vivo at 20 mg/kg (%)
Write the value in % as a bare number.

Data request, read-out inhibition in vivo at 20 mg/kg, for "O=C(O)Cc1ccccc1Nc1c(Cl)cccc1Cl"
80

====

# run.description: Free radical scavenging activity assessed as inhibition of DPPH radical generation at 100 ug
# Type: functional
Use Yes when the recorded inhibition is no lower than 80%; use No when it is lower.

Cc1ccc([C@H]2CC(c3ccccc3)=NN2c2ncc(Br)cn2)cc1 : Yes

Given "Brc1ccc([C@H]2CC(c3ccccc3)=NN2c2ncc(Br)cn2)cc1" , state whether its inhibition is at least 80%.
Yes

Identify whether the reported inhibition of the following molecule is 80% or greater: "Cc1ccc([C@H]2CC(c3ccc(Br)cc3)=NN2c2ncc(Br)cn2)cc1"
No

====

# System: Mus musculus
# run.description: Analgesic activity in Swiss albino mouse assessed as increase in reaction time at 10 mg/kg, ip measured 60 mins post dose by tail immersion method
# Format: functional
# stated.conditions: route intraperitoneal
recorded.endpoint: Activity (%)
// return numeric value only (unit: %, not printed)

Record excerpt, results attached:
CC(C)=CCN1CC[C@@]2(C)c3cc(O)ccc3C[C@@H]1[C@@H]2C (relative stereo) : 45.79
Brc1ccc([C@H]2CC(c3ccccc3)=NN2c2ncc(Br)cn2)cc1 : 62.01
COc1ccc([C@H]2CC(c3ccc(Cl)cc3)=NN2c2ncc(Br)cn2)cc1 : 39.25

Recorded Activity for "Clc1ccc([C@H]2CC(c3ccccc3)=NN2c2ncc(Br)cn2)cc1" , please?
72.16

Look up Activity: "Clc1ccc(C2=NN(c3ncc(Br)cn3)[C@@H](c3ccccc3)C2)cc1"
70.79

// lookup Activity for "Cc1ccc([C@H]2CC(c3ccccc3)=NN2c2ncc(Br)cn2)cc1"
73.66

====

# System: Rattus norvegicus
# run.description: Antiinflammatory activity in Wistar albino rat assessed as inhibition of carrageenan-induced paw edema dosed at 20 mg/kg in plantar region of paw administered 30 mins before carrageenan challenge measured 2.5 hrs post carrageenan-induced inflammation
# Type: functional
Listed below: inhibition in vivo at 20 mg/kg values for each entry.
API: value field is a number in %; no unit string.

Use these answered entries as a reference point.
O=C(O)Cc1ccccc1Nc1c(Cl)cccc1Cl : 71
Clc1ccc(C2=NN(c3ncc(Br)cn3)[C@@H](c3ccccc3)C2)cc1 : 70
COc1ccc([C@H]2CC(c3ccc(Cl)cc3)=NN2c2ncc(Br)cn2)cc1 : 69
Brc1ccc([C@H]2CC(c3ccccc3)=NN2c2ncc(Br)cn2)cc1 : 78
Clc1ccc([C@H]2CC(c3ccccc3)=NN2c2ncc(Br)cn2)cc1 : 72

# lookup: inhibition in vivo at 20 mg/kg of "Cc1ccc([C@H]2CC(c3ccccc3)=NN2c2ncc(Br)cn2)cc1"
72

====

inhibition in vivo at 20 mg/kg values, listed per item
# Tested on: Rattus norvegicus
# run.description: Antiinflammatory activity in Wistar albino rat assessed as inhibition of carrageenan-induced paw edema dosed at 20 mg/kg in plantar region of paw administered 30 mins before carrageenan challenge measured 1.5 hrs post carrageenan-induced inflammation
# Assay type: functional
The response must be a number in % with no trailing unit.

Consider the following illustrative entries.
Clc1ccc([C@H]2CC(c3ccccc3)=NN2c2ncc(Br)cn2)cc1 : 71
Brc1ccc([C@H]2CC(c3ccccc3)=NN2c2ncc(Br)cn2)cc1 : 74

Shift focus to the following entry.
// inhibition in vivo at 20 mg/kg lookup, key: "O=C(O)Cc1ccccc1Nc1c(Cl)cccc1Cl"
67
